target: P2X purinoceptor 4 (Homo sapiens, UniProt Q99571); assay: Antagonist activity at human P2X4 receptor expressed in human 1321N1 cells assessed as inhibition of ATP-induced cytosolic calcium influx preincubated for 30 mins followed by ATP addition by Fluo-4 AM dye-based fluorescence assay; type: cell-based
Sequence (Q99571 whole entry): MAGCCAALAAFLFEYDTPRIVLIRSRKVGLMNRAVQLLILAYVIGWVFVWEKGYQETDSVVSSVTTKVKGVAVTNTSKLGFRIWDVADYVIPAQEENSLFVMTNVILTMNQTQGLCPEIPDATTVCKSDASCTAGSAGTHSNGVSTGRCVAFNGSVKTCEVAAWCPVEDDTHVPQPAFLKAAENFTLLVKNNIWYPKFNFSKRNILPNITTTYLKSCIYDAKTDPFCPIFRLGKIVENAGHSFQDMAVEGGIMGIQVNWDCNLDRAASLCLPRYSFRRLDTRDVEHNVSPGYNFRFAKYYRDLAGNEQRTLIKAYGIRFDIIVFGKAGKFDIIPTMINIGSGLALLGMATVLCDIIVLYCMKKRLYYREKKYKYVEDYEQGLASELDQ
pIC50: −log10 of the molar value.
Response key: criterion met means pIC50 >= 7; criterion not met means pIC50 < 7.

Worked set:
[[record]]
mol_smiles = "O=C(Nc1cccc(C(F)(F)F)c1)c1cc(Cl)ccc1O"
group_label = "criterion not met"

[[record]]
mol_smiles = "O=C(Nc1cc(C(F)(F)F)cc(C(F)(F)F)c1)c1cccc(Cl)c1O"
group_label = "criterion met"

[[record]]
mol_smiles = "O=C(Nc1cc(Cl)cc(Cl)c1)c1cc(Cl)ccc1O"
group_label = "criterion not met"

[[record]]
mol_smiles = "O=C(Nc1cc(C(F)(F)F)cc(C(F)(F)F)c1)c1ccc(Cl)cc1O"
group_label = "criterion not met"

[[record]]
mol_smiles = "O=C(Nc1cc([N+](=O)[O-])cc(C(F)(F)F)c1)c1cc(Cl)ccc1O"
group_label = "criterion met"


Threshold query (pIC50 >= 7) on O=C(Nc1cc(C(F)(F)F)cc(C(F)(F)F)c1)c1ccc2ccccc2c1O criterion not met

Check if pIC50 >= 7 (inclusive). Item: O=C(Nc1cc(C(F)(F)F)cc(C(F)(F)F)c1)c1cccc(F)c1O criterion not met

* * *

target: P2X purinoceptor 1 (Homo sapiens) (UniProt P51575); experiment: Antagonist activity at non-desensitizing human P2X1 receptor ( P2X2/P2X1 chimera) expressed in human 1321N1 cells assessed as inhibition of ATP-induced calcium influx at 10 uM pre-incubated for 30 mins before ATP stimulation by FLIPR assay relative to control; format: cell-based
Sequence (P51575 whole entry): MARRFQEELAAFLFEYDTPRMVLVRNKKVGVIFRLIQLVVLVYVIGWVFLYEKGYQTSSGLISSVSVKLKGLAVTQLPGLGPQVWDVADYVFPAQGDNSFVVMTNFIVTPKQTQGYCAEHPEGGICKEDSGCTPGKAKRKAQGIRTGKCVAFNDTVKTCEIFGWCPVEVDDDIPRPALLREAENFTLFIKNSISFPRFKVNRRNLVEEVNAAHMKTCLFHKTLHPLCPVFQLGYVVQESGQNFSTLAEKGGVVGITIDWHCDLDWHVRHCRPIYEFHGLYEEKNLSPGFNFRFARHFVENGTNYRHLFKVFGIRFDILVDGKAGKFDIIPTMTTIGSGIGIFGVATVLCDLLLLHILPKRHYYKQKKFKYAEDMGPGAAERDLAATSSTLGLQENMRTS
Measured inhibition, listed per entry for reference.
Dear colleague, please return just the value in %, with no unit written.

// below: answered compounds
[[record]]
mol_smiles = "Cc1cc(C)cc(NC(=O)c2cc(Cl)ccc2O)c1"
quantity_name = "inhibition"
unit_abbreviation = "%"
observed_value = 64

[[record]]
mol_smiles = "NS(=O)(=O)c1cccc(NC(=O)c2ccccc2O)c1"
quantity_name = "inhibition"
unit_abbreviation = "%"
observed_value = 21

[[record]]
mol_smiles = "O=C(Nc1cc(C(F)(F)F)cc(C(F)(F)F)c1)c1ccccc1[N+](=O)[O-]"
quantity_name = "inhibition"
unit_abbreviation = "%"
observed_value = 61

[[record]]
mol_smiles = "C#Cc1cccc(NC(=O)c2cc(Cl)ccc2O)c1"
quantity_name = "inhibition"
unit_abbreviation = "%"
observed_value = 60

[[record]]
mol_smiles = "COc1cc(NC(=O)c2cc(Cl)ccc2O)cc(OC)c1"
quantity_name = "inhibition"
unit_abbreviation = "%"
observed_value = 80

[[record]]
mol_smiles = "Nc1ccccc1C(=O)Nc1cc(C(F)(F)F)cc(C(F)(F)F)c1"
quantity_name = "inhibition"
unit_abbreviation = "%"
observed_value = 67

[[record]]
mol_smiles = "O=C(Nc1cccc(S(=O)(=O)C(F)(F)F)c1)c1cc(Cl)ccc1O"
quantity_name = "inhibition"
unit_abbreviation = "%"
observed_value = 83

[[record]]
mol_smiles = "O=C(Nc1cc(F)cc(F)c1)c1cc(Cl)ccc1O"
quantity_name = "inhibition"
unit_abbreviation = "%"
observed_value = 62

[[record]]
mol_smiles = "O=C(Nc1cc(Cl)ccc1O)c1cc(C(F)(F)F)cc(C(F)(F)F)c1"
quantity_name = "inhibition"
unit_abbreviation = "%"
observed_value = 48

[[record]]
mol_smiles = "O=C(Nc1ccc(C(F)(F)F)cc1)c1cc(Cl)ccc1O"
quantity_name = "inhibition"
unit_abbreviation = "%"
observed_value = 53


Looking for the measured inhibition of O=C(Nc1cc(C(F)(F)F)cc(C(F)(F)F)c1)c1cccc(Cl)c1O , can you help? 83

Query: inhibition; subject: CN1CCN(C(=O)Nc2cc(C(F)(F)F)cc(C(F)(F)F)c2)C1=O 0

* * *

Listing of recorded inhibition by entry.
target: P2X purinoceptor 1 (Homo sapiens); assay: Antagonist activity at non-desensitizing human P2X1 receptor ( P2X2/P2X1 chimera) expressed in human 1321N1 cells assessed as inhibition of ATP-induced calcium influx at 10 uM pre-incubated for 30 mins before ATP stimulation by FLIPR assay relative to control; assay type: cell-based
# output: bare number, implied unit %

Record excerpt, results attached:
[[record]]
mol_smiles = "O=C(Nc1ccccc1C(F)(F)F)c1cc(Cl)ccc1O"
target_of_assay = "P2X purinoceptor 1 (Homo sapiens)"
quantity_name = "inhibition"
observed_value = 28

[[record]]
mol_smiles = "O=C(Nc1cc(C(F)(F)F)cc(C(F)(F)F)c1)c1cccc(O)c1"
target_of_assay = "P2X purinoceptor 1 (Homo sapiens)"
quantity_name = "inhibition"
observed_value = 100


Under P2X purinoceptor 1 (Homo sapiens): inhibition value of Oc1ccc(Cl)cc1CNc1cc(C(F)(F)F)cc(C(F)(F)F)c1 ? 122

Lab note: need inhibition for N#Cc1ccc(NC(=O)c2cc(Cl)ccc2O)cc1 on P2X purinoceptor 1 (Homo sapiens), anyone have it? 38

inhibition of CC(C)(C)c1cccc(NC(=O)c2cc(Cl)ccc2O)c1 on P2X purinoceptor 1 (Homo sapiens)? 100

* * *

target: P2X purinoceptor 1 (Homo sapiens) (UniProt P51575); test: Antagonist activity at non-desensitizing human P2X1 receptor ( P2X2/P2X1 chimera) expressed in human 1321N1 cells assessed as inhibition of ATP-induced calcium influx at 10 uM pre-incubated for 30 mins before ATP stimulation by FLIPR assay relative to control; format: cell-based
Label class 1 when inhibition >= 80%; otherwise class 0.

Recorded results for 5 compounds are shown here.
[[record]]
mol_smiles = "O=C(Nc1cc(C(F)(F)F)cc(C(F)(F)F)c1)c1cnccc1O"
group_label = "class 0"

[[record]]
mol_smiles = "O=C(Nc1cccc([N+](=O)[O-])c1)c1cc(Cl)ccc1O"
group_label = "class 0"

[[record]]
mol_smiles = "O=C(Nc1cccc(C(F)(F)F)c1)c1cc(Cl)ccc1O"
group_label = "class 0"

[[record]]
mol_smiles = "O=C(Nc1cc(C(F)(F)F)cc(C(F)(F)F)c1)c1cccc([N+](=O)[O-])c1O"
group_label = "class 1"

[[record]]
mol_smiles = "O=C(N[C@H](Cc1cscn1)C(=O)N[C@@H](CC1CCCCC1)[C@@H](O)[C@@H](O)C1CC1)c1nc2ccccc2[nH]1"
group_label = "class 1"


Lab note: next compound to report on.
Threshold query (inhibition >= 80%) on O=C(Nc1ccc(F)cc1)c1cc(Cl)ccc1O class 1

* * *

molecular target: P2X purinoceptor 1 (Homo sapiens, UniProt P51575); experiment: Antagonist activity at non-desensitizing human P2X1 receptor ( P2X2/P2X1 chimera) expressed in human 1321N1 cells assessed as inhibition of ATP-induced calcium influx pre-incubated for 30 mins before ATP stimulation by FLIPR assay relative to control
pIC50: −log10 of the molar value.
Quantity Name: pIC50

Guide cases for pIC50, answers given:
[[record]]
compound = "O=C(Nc1ccccc1C(F)(F)F)c1cc(Cl)ccc1O"
quantity_name = "pIC50"
observed_value = "< 5.00"

[[record]]
compound = "O=C(Nc1ccc2ncccc2c1)c1ccccc1O"
quantity_name = "pIC50"
observed_value = "< 5.00"

[[record]]
compound = "O=C(Nc1cc(Cl)ccc1O)c1cc(C(F)(F)F)cc(C(F)(F)F)c1"
quantity_name = "pIC50"
observed_value = "≤ 5.00"

[[record]]
compound = "O=C(Nc1ccc2cc[nH]c2c1)c1ccccc1O"
quantity_name = "pIC50"
observed_value = "< 5.00"

[[record]]
compound = "O=C(Nc1cc(C(F)(F)F)cc(C(F)(F)F)c1)c1ccccc1O"
quantity_name = "pIC50"
observed_value = 7.11

[[record]]
compound = "NS(=O)(=O)c1cccc(NC(=O)c2ccccc2O)c1"
quantity_name = "pIC50"
observed_value = "< 5.00"

[[record]]
compound = "O=C(Nc1cccc(C(F)(F)F)c1)c1ccccc1O [SALFLUVERINE]"
quantity_name = "pIC50"
observed_value = 5.89


Recorded pIC50 for O=C(Nc1cccc(Br)c1)c1ccccc1O , please? 5.57

* * *

Quick list: IC50 per entry.
molecular target: UniProtKB Q99571; test: Antagonist activity at human P2X4 receptor expressed in human 1321N1 cells assessed as inhibition of ATP-induced cytosolic calcium influx preincubated for 30 mins followed by ATP addition by Fluo-4 AM dye-based fluorescence assay
Just the number please, in nM, no unit attached.

Some compounds with recorded IC50:
[[record]]
mol_smiles = "O=C(Nc1cc(C(F)(F)F)cc(C(F)(F)F)c1)c1cc(Cl)ccc1O"
unit_abbreviation = "nM"
observed_value = 156

[[record]]
mol_smiles = "O=C(Nc1cccc(Cl)c1)c1cc(Cl)ccc1O"
unit_abbreviation = "nM"
observed_value = 135


# input for lookup
What value of IC50 has been reported for the following compound? O=C(Nc1cc(F)cc(F)c1)c1cc(Cl)ccc1O 155

* * *

target: P2X purinoceptor 1 (Homo sapiens) (UniProt P51575); experiment: Antagonist activity at non-desensitizing human P2X1 receptor ( P2X2/P2X1 chimera) expressed in human 1321N1 cells assessed as inhibition of ATP-induced calcium influx at 10 uM pre-incubated for 30 mins before ATP stimulation by FLIPR assay relative to control; format: cell-based
The following compounds are shown together with reported inhibition values.
Your answer is read as %, so omit the unit and give the number.

[[record]]
mol_smiles = "O=C(Nc1cc(C(F)(F)F)cc(C(F)(F)F)c1)c1cccc(Cl)c1"
quantity_name = "inhibition"
unit_abbreviation = "%"
observed_value = 82

[[record]]
mol_smiles = "O=C(Nc1cc(C(F)(F)F)cc(C(F)(F)F)c1)c1cccc(F)c1O"
quantity_name = "inhibition"
unit_abbreviation = "%"
observed_value = 80

[[record]]
mol_smiles = "O=C(Nc1cc(C(F)(F)F)cc(C(F)(F)F)c1)c1ccccc1"
quantity_name = "inhibition"
unit_abbreviation = "%"
observed_value = 79

[[record]]
mol_smiles = "COc1ccc(O)c(C(=O)Nc2cc(C(F)(F)F)cc(C(F)(F)F)c2)c1"
quantity_name = "inhibition"
unit_abbreviation = "%"
observed_value = 91

[[record]]
mol_smiles = "O=C(Nc1cc(C(F)(F)F)cc(C(F)(F)F)c1)c1ccncc1O"
quantity_name = "inhibition"
unit_abbreviation = "%"
observed_value = 60

[[record]]
mol_smiles = "O=C(Nc1cc(C(F)(F)F)cc(C(F)(F)F)c1)c1c(O)cccc1O"
quantity_name = "inhibition"
unit_abbreviation = "%"
observed_value = 75

[[record]]
mol_smiles = "O=C(Nc1cc(C(F)(F)F)cc(C(F)(F)F)c1)c1ccc(Cl)cc1O"
quantity_name = "inhibition"
unit_abbreviation = "%"
observed_value = 59


Return reported inhibition; argument: O=C(Nc1cc(C(F)(F)F)cc(C(F)(F)F)c1)c1ccccc1CO 37
